# tested on: HLA-A*03:01 (Homo sapiens)
# assay details: In vitro binding of neoantigens to class I MHC (UV peptide exchange, HLA class I ELISA)
# measurement context: 100% = same binding as positive control peptide
Short version: Exchange rate with allele specific Pos peptide, HLA-A*03:01 at least 30% is TRUE, less is FALSE.

The examples below pair each entry with its known result.
substance: P48 (VQPIARELYQFTFDLLI; listed as Homo sapiens) [Peptide P48]
class label: FALSE
--
substance: P46 (DDRNTFDIVWWCPMSRLRLALTVPPSTTTTCVTVPAWAA; listed as Homo sapiens) [Peptide P46]
class label: FALSE
--
substance: YEAGMTLGGKILFFLFLLLPLSPFSLIF (listed as Homo sapiens) [Neoantigen P87]
class label: FALSE
--
substance: P98: neoantigen 9 mer fragment used for PBMC stimulation (FIG. 5D) (IVWWCPMSR; listed as Homo sapiens) [Neoantigen P98]
class label: TRUE
--
substance: P58 (MMAEIISVHVPKILSGK; listed as Homo sapiens) [Peptide P58]
class label: TRUE
--
substance: P17 (GVPGDSTRRAVRRMNTF; listed as Homo sapiens) [Peptide P17]
class label: FALSE

Exercise: I'd appreciate it if you could say whether P56 (PKSEVRAKCKFSILNAK; listed as Homo sapiens) [Peptide P56] has Exchange rate with allele specific Pos peptide, HLA-A*03:01 at least equal to 30%.
Solution: FALSE

Exercise: I'd appreciate it if you could say whether YEAGMTLGEKFRVGNCKHLKMTRP (listed as Homo sapiens) [Neoantigen P82] has Exchange rate with allele specific Pos peptide, HLA-A*03:01 at least equal to 30%.
Solution: TRUE

Exercise: Kindly determine if Exchange rate with allele specific Pos peptide, HLA-A*03:01 recorded for P97 (GYLRMQGLMAQRLLLR; listed as Homo sapiens) [Peptide P97] is above or exactly 30%.
Solution: TRUE
